- Measurement description: small-molecule binders of probe aLefty1, primary screen, biochemical, small-molecule microarray, 635/667 nm fluorescence (AID 1153);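 further: score merges spot fluorescence with signal-to-noise ratio from the scanned slide images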
- Particulars: higher = more signal
So I've got a bunch of compounds here, and I need their composite z-score values.
Just the number, please, no unit attached.

Kindly note the recorded composite z-score for O=C1c2ccccc2[C@](Cc2ccccc2I)(C(=O)NCc2ccccc2)[C@H](c2ccc(CO)cc2)N1Cc1ccccc1C(F)(F)F , which is -0.103

Kindly note the recorded composite z-score for C[C@H]1COC(=O)[C@H](Cc2ccccc2)NC(=O)[C@@H](C)COC(=O)[C@H](Cc2ccccc2)NC1=O , which is -0.239

Kindly note the recorded composite z-score for C[C@@H]1CC[C@H]2C(=O)N3[C@@H](CC[C@@H](C)[C@@H]3c3cccc(N4CCOCC4)c3)C(=O)N2[C@H]1c1cccc(N2CCOCC2)c1 , which is 0.191

Kindly note the recorded composite z-score for COc1ccc(-c2cc3c(c(-c4ccccc4)n2)[Si](C(C)C)(C(C)C)O[C@H]3c2ccccc2)cn1 , which is -0.147

Kindly note the recorded composite z-score for COc1ccc(C(=O)Nc2ccc(CN3C(=O)[C@]4(O[C@H](CCn5cc(CCO)nn5)[C@@H]([Si](C)(C)c5ccc(OC)cc5)[C@@H]4C)c4ccccc43)cc2)cc1 , which is 0.0253

Kindly note the recorded composite z-score for Cc1ccc(S[C@]2(C(=O)NC(C)C)CC(=O)N(C3Cc4ccccc4C3)[C@@H]2c2ccc(CO)cc2)cc1 , which is -0.357

Kindly note the recorded composite z-score for CN(C)CCCC[C@@H]1NC(=O)[C@@H]2C[C@H](C(=O)O)[C@H](c3ccc(O)cc3)N2C1=O , which is 0.616

* * *

So I've got a bunch of molecules here, and I need their composite z-score values.
- Tested on: XIP peptide (Xip251-270) binding
- Measurement description: small-molecule binders of XIP peptide, primary screen, biochemical, small-molecule microarray, fluorescence 635/667 nm, 0.1 µg/mL protein (AID 1182)
- Particulars: fluorescent protein binding, 635 nm, higher = more signal, called active from +8 up or from −8 down
Just the number, please, no unit attached.

Kindly note the recorded composite z-score for O=C1C[C@@](C(=O)NC2CC2)(c2ccc([N+](=O)[O-])cc2)[C@@H](c2ccc(CO)cc2I)N1CC12CC3CC(CC(C3)C1)C2 , which is 0.479

Kindly note the recorded composite z-score for COc1cc2c(cc1OC)CN(C(=O)[C@H]1[C@@H]3C(=O)O[C@@H](c4ccccc4)[C@@H](c4ccccc4)N3[C@@H](c3ccc(O)cc3)[C@]13C(=O)Nc1ccc(C#CC4(O)CCCCCC4)cc13)CC2 , which is 3.38

Kindly note the recorded composite z-score for COc1cccc([C@H]2N[C@H](C(=O)O)CC[C@@H]2C)c1 , which is 0.253

Kindly note the recorded composite z-score for COc1ccc(C(=O)Nc2ccc(CN3C(=O)[C@]4(O[C@H](CCn5cc(CCO)nn5)[C@@H]([Si](C)(C)c5ccc(OC)cc5)[C@@H]4C)c4ccccc43)cc2)cc1 , which is -0.154

* * *

So I've got a bunch of molecules here, and I need their composite z-score values.
- Target: Follistatin-related protein 3 (Homo sapiens)
- Measurement description: FSTL3 binders on small-molecule microarrays, primary screen, biochemical, small-molecule microarray, 635 nm fluorescence (AID 1105);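 further: score merges emission near 667 nm and signal to noise per printed spot across three slides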
- Particulars: FSTL3 binding, higher = more signal
Just the number, please, no unit attached.

Kindly note the recorded composite z-score for NC(=O)NCC#Cc1ccc2c(c1)[C@]1(C(=O)N2)[C@H](C(N)=O)[C@H]2C(=O)O[C@H](c3ccccc3)[C@H](c3ccccc3)N2[C@@H]1c1ccccc1OCCO , which is 1.02

Kindly note the recorded composite z-score for C[C@@H]1CC[C@H]2C(=O)N3CCC[C@H]3C(=O)N2[C@H]1c1ccc(Br)cc1 , which is 0.0529

Kindly note the recorded composite z-score for CCN1C(C)=C(C(=O)OC)[C@@H](c2ccccc2)N2C(=O)[C@@]3(C(=O)OC)O[C@@]12[C@@H]1C(=O)N(c2ccccc2)C(=O)[C@@H]13 , which is 1.24

Kindly note the recorded composite z-score for C[C@H]1COC(=O)[C@H](Cc2ccccc2)NC(=O)[C@@H](C)COC(=O)[C@H](Cc2ccccc2)NC1=O , which is 0.897

Kindly note the recorded composite z-score for COc1cccc([C@@H]2[C@@H](C)CC[C@H]3C(=O)N(C)[C@@H](C(C)C)C(=O)N23)c1 , which is 0.472

Kindly note the recorded composite z-score for C=CCC(OC(C)=O)[C@@H]1[C@@H](N(Cc2ccc(-c3ccccc3)cc2)C(=O)c2ccc(C)cc2)c2cc(OCCCO)ccc2N1C(=O)c1ccc(-c2ccccc2)cc1 (some centres undefined) , which is -0.023

Kindly note the recorded composite z-score for CN(C)CCCC[C@@H]1NC(=O)[C@@H]2C[C@H](C(=O)O)[C@H](c3ccc(O)cc3)N2C1=O , which is 0.928

Kindly note the recorded composite z-score for COCCOC(=O)N1C(=O)[C@@]2(c3cc(C#CC4=CCCCC4)ccc31)[C@H](C(=O)NC[C@H](O)c1ccccc1)[C@H]1C(=O)O[C@H](c3ccccc3)[C@H](c3ccccc3)N1[C@@H]2c1ccccc1OCCO , which is 1.08

Kindly note the recorded composite z-score for COCCCNC(=O)[C@@]1(c2ccc([N+](=O)[O-])cc2)CC(=O)N(C2CCCCC2)[C@@H]1c1ccc(CO)cc1 , which is -0.186

Kindly note the recorded composite z-score for C=CC[C@]1(C(=O)O)N=C(c2ccc(OCCCO)cc2)O[C@H]1c1ccccc1N=[N+]=[N-] , which is -0.214

Kindly note the recorded composite z-score for C=CC[C@@]1(C(=O)NCC(O)CO)N=C(c2ccc(OCCCO)cc2)O[C@@H]1c1ccccc1CN=[N+]=[N-] (some centres undefined) , which is -0.884

Kindly note the recorded composite z-score for C=CCN(C(=O)C1N(c2ccc(CCO)cc2)C(=O)C2C(C(=O)O)C3C=CC21O3)C(C)(C)C (centres undefined) , which is -2.73

Kindly note the recorded composite z-score for C=CCC(OC(C)=O)[C@@H]1[C@@H](N(Cc2ccc(-c3ccccc3)cc2)C(=O)c2ccc(-c3ccccc3)cc2)c2cc(OCCCO)ccc2N1C(=O)Cc1ccc(OC)cc1 (some centres undefined) , which is 0.491

Kindly note the recorded composite z-score for C=CCNC(=O)[C@@H]1[C@H]2C(=O)O[C@H](c3ccccc3)[C@H](c3ccccc3)N2[C@H](c2ccc(OCCO)cc2)[C@@]12C(=O)N(C(=O)OCCOC)c1ccc(C#CC3(O)CCCCCC3)cc12 , which is 0.702

* * *

- System: Neuregulin-1 EGF-like domain
- Measurement description: binders of neuregulin-1 EGF-like domain, primary screen, biochemical, small-molecule microarray, 635 nm fluorescence (AID 1081);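 further: binding of the protein to compounds printed on small-molecule microarray slides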
- Particulars: small-molecule microarray binding, higher = more signal
So I've got a bunch of molecules here, and I need their composite z-score values.
Just the number, please, no unit attached.

Kindly note the recorded composite z-score for CO[C@H]1O[C@H](CO)[C@@H](OC(=O)Nc2ccc(Oc3ccccc3)cc2)[C@H](OC(=O)Nc2ccccc2-c2ccccc2)[C@H]1OC(=O)Nc1ccccc1-c1ccccc1 , which is 1.35

Kindly note the recorded composite z-score for C=CCOC(=O)[C@@H]1[C@H]2C(=O)O[C@H](c3ccccc3)[C@H](c3ccccc3)N2[C@H](c2ccc(OCCOC(=O)[C@H]3C[C@H]4C(=O)N[C@@H](CCCCNC(C)=O)C(=O)N4[C@H]3c3ccc(O)cc3)cc2)[C@@]12C(=O)Nc1ccc(I)cc12 , which is 1.17

Kindly note the recorded composite z-score for COC(=O)[C@@]1(Cc2ccc(OC)cc2)[C@H]2c3cc(C(=O)N(C)C)n(CCc4ccc(OC)c(Br)c4)c3C[C@H]2CN1C(=O)c1ccccc1 , which is 1.34

Kindly note the recorded composite z-score for C=CCN1C(=O)[C@@]2(O[C@@H](CCn3cc([C@H](O)c4ccccc4)nn3)[C@H]([Si](C)(C)c3ccc(OC)cc3)[C@H]2C)c2cc(N3CCOC3=O)ccc21 , which is 1.1

Kindly note the recorded composite z-score for CCOC(=O)C[C@H]1[C@H](OC(=O)c2ccccc2-c2ccccc2)[C@@H](NC(=O)c2ccc(-c3ccccc3)cc2)c2cc(OCCCO)ccc2N1C(=O)Cc1ccc(OC)cc1 , which is 0.373

* * *

- Measurement description: basal RPMI8226 mitochondrial membrane potential changes, profiling panel, cell-based, JC-1 fluorescence, 24 h, 100 nL compound (AID 1169)
- Particulars: RPMI8226 myeloma, JC-1 mitochondrial potential fluorescence, higher = more signal
Reported metric: z-score
Just the number, please, no unit attached.

Kindly note the recorded z-score for CCOC(=O)C1=C[C@@H](c2ccccc2)N(S(=O)(=O)c2ccc(C)cc2)[C@H]1c1ccc(F)cc1 , which is -0.118

Kindly note the recorded z-score for CO[C@H]1COC(=O)[C@@H](Cc2ccccc2)NC(=O)[C@@H](C)COC(=O)CC=C[C@@H]1C , which is 0.175

Kindly note the recorded z-score for O=C1C2C=CC(C(O)C#Cc3ccccc3)N(Nc3ccccc3)C2C(=O)N1c1ccccc1 (centres undefined) , which is -0.449

Kindly note the recorded z-score for O=C1OCC=C[C@H]2OC34C=CCN(Cc5ccccc5)C(=O)[C@H]3N(CCCCCO)C(=O)[C@@H]4[C@@H]12 (some centres undefined) , which is 1.27

Kindly note the recorded z-score for CCc1cccc(NC(=O)O[C@H]2[C@H](OC(=O)Nc3ccccc3)[C@@H](OC(=O)Nc3ccccc3)[C@@H](OC)O[C@@H]2CO)c1 , which is -1.21

Kindly note the recorded z-score for COCCOC(=O)N1C(=O)[C@@]2(c3cc(C#CCC(C(=O)OC)C(=O)OC)ccc31)[C@H](c1ccccc1OCCO)N1[C@H](c3ccccc3)[C@H](c3ccccc3)OC(=O)[C@H]1[C@@H]2C(=O)N1CCCCCCC1 , which is -0.641

Kindly note the recorded z-score for [N-]=[N+]=NCc1ccccc1C[C@@]1(C(=O)N2CCOCC2)N=C(c2ccc(OCCCO)cc2)O[C@@H]1c1ccccc1N=[N+]=[N-] , which is -0.982

Kindly note the recorded z-score for CN1C(=O)C2C=CC(C(O)c3ccc(N(C)C)cc3)N(Nc3ccc([N+](=O)[O-])cc3[N+](=O)[O-])C2C1=O (centres undefined) , which is 0.0429

Kindly note the recorded z-score for CCCC=C(CCC)[C@@H](NS(=O)(=O)c1cccc(C(F)(F)F)c1)c1ccc(C(=O)OC)cc1 , which is 0.0542

Kindly note the recorded z-score for C=CCC(OC(C)=O)[C@@H]1[C@@H](N(Cc2ccc(-c3ccccc3)cc2)C(=O)c2ccc(C)cc2)c2cc(OCCCO)ccc2N1C(=O)c1ccc(-c2ccccc2)cc1 (some centres undefined) , which is -0.454

Kindly note the recorded z-score for O=C1O[C@H](c2ccccc2)[C@H](c2ccccc2)N2[C@H]1[C@@H](C(=O)Nc1nc3ccccc3s1)[C@]1(C(=O)Nc3ccc(C#CC4(O)CCCCCC4)cc31)[C@H]2c1ccc(O)cc1 , which is -1.14

Kindly note the recorded z-score for COC(=O)C[C@H]1O[C@]2(C(=O)N(C)c3ccccc32)[C@@H](C)[C@@H]1[Si](C)(C)c1ccc(OC)cc1 , which is -0.636

Kindly note the recorded z-score for CN(C)C(=O)[C@@]1(Cc2ccccc2N=[N+]=[N-])N=C(c2ccc(OCCCO)cc2)O[C@H]1c1ccccc1CN=[N+]=[N-] , which is -0.904

Kindly note the recorded z-score for COc1cc([C@@H]2N[C@H](C(=O)O)Cc3c2[nH]c2ccccc32)cc(OC)c1OC , which is -0.663

Kindly note the recorded z-score for O=C1C[C@@](C(=O)NC2CC2)(c2ccc([N+](=O)[O-])cc2)[C@@H](c2ccc(CO)cc2I)N1CC12CC3CC(CC(C3)C1)C2 , which is -1.02

Kindly note the recorded z-score for Cc1ccccc1C(O)C1C=CC2C(=O)N(c3ccccc3)C(=O)C2N1Nc1ccc(C#N)cc1 (centres undefined) , which is -0.472

Kindly note the recorded z-score for C[C@@H]1CC[C@H]2C(=O)N3CCC[C@H]3C(=O)N2[C@H]1c1ccc(Br)cc1 , which is -0.167

Kindly note the recorded z-score for Cc1ccc(S[C@]2(C(=O)NC(C)C)CC(=O)N(C3Cc4ccccc4C3)[C@@H]2c2ccc(CO)cc2)cc1 , which is 0.758

Kindly note the recorded z-score for CC(C)[Si]1(C(C)C)O[C@@H](c2ccccc2)c2cc(C3CC3)nc(-c3ccc(Oc4ccccc4)cc3)c21 , which is 0.38

Kindly note the recorded z-score for CCCN1C(=O)[C@@]2(CCS(=O)(=O)c3ccccc3)N=C(c3ccc(OCCCO)cc3)O[C@H]2c2ccccc21 , which is -1.31

Kindly note the recorded z-score for C[C@H]1NC(=O)[C@@H](C)NC(=O)[C@@]23C(=O)N[C@@H](Cc4ccccc4)C2[C@H](C)[C@@]2(C)O[C@H]2C3/C=C/C/C=C\CNC1=O (some centres undefined) , which is -0.266

Kindly note the recorded z-score for COc1ccc([Si](C)(C)[C@@H]2[C@@H](CCO)O[C@]3(C(=O)N(Cc4ccc(NC(=O)[C@H](C)O)cc4)c4ccccc43)[C@H]2C)cc1 , which is -1.12

Kindly note the recorded z-score for Cc1ccc(S[C@]2(C(=O)O)CC(=O)N(Cc3ccccc3)[C@@H]2c2ccc(CO)cc2)cc1 , which is 0.118

Kindly note the recorded z-score for CCCNC(=O)[C@@H]1c2ccccc2C(=O)N(C2CCCCC2)[C@H]1c1ccc(CO)cc1 , which is -0.192

Kindly note the recorded z-score for C=C[C@H](OC)[C@@H](OC(=O)Nc1ccc(SC)cc1)c1ccc(O)c(F)c1 , which is -1.09

Kindly note the recorded z-score for O=C1C2C=CC(C(O)C(c3ccccc3)c3ccccc3)N(Nc3ccc([N+](=O)[O-])cc3)C2C(=O)N1c1ccccc1 (centres undefined) , which is 0.213

Kindly note the recorded z-score for C=C(CCCC)/C(=C/C[C@@H](OC(=O)c1ccncc1)c1ccc(CO)o1)c1cnc2ccccc2c1 , which is -0.287

Kindly note the recorded z-score for COCCOC(=O)N1C(=O)[C@@]2(c3cc(C#CCCO)ccc31)[C@H](c1ccc(OCCO)cc1)N1[C@H](c3ccccc3)[C@H](c3ccccc3)OC(=O)[C@H]1[C@@H]2C(=O)NC[C@H](O)c1ccccc1 , which is 0.0686

Kindly note the recorded z-score for COCCOC(=O)N1C(=O)[C@@]2(c3cc(C#CC4=CCCCC4)ccc31)[C@H](c1ccc(O)cc1)N1[C@H](c3ccccc3)[C@H](c3ccccc3)OC(=O)[C@H]1[C@@H]2C(=O)N1CCCCCCC1 , which is -0.247
